# System under test: BRAF G466V (Homo sapiens, UniProt P15056, G466V)
# Construct: Horizon Discovery (HCT-116 BRAF−/− cells); host or cells: HCT-116 BRAF−/− cells, clone 8, lentiviral transduction
# Sequence (P15056 whole entry G466V): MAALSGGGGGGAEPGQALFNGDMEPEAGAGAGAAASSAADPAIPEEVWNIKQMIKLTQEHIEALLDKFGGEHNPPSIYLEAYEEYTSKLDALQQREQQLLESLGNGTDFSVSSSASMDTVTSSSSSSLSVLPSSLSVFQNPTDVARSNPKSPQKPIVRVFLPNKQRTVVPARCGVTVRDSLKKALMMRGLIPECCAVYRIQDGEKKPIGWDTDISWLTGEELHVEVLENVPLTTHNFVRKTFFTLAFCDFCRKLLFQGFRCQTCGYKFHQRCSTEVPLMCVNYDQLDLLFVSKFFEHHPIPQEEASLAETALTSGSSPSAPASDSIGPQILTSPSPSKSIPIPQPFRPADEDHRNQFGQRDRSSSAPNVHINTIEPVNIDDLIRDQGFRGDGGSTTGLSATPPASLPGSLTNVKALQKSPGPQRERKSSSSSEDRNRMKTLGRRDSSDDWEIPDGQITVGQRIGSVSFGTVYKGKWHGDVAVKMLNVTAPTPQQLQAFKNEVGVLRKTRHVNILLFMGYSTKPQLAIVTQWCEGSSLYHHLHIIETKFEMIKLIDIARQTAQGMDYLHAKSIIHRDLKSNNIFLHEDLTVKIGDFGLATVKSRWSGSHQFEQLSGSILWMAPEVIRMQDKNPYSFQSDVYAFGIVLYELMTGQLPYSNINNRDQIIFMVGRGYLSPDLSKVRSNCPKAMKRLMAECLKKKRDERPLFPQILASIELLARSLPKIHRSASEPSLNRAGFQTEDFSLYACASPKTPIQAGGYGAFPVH
# Experiment summary: BRAF HiBiT degradation assay, C-terminal HiBiT-tagged BRAF G466V overexpressed in HCT-116 BRAF−/− cells (clone 8), Nano-Glo HiBiT Lytic assay
# Assay type: cell-based
# Setup conditions: BRAF G466V; DC50 at 50%: fitted conc. at Y=50
Reported DC50 by item:

Some compounds with recorded DC50:
Compound	System under test	DC50
CCCS(=O)(=O)Nc1cccc(-c2nc(C(C)(C)C)sc2-c2ccnc(Nc3ccc(C4CCN(C(=O)CN5CCN(c6cc(C7CCC(=O)NC7=O)ccn6)CC5)CC4)cc3)n2)c1F (racemic)	BRAF G466V (Homo sapiens, UniProt P15056, G466V)	> 0.5 µM
CCCS(=O)(=O)Nc1cccc(-c2nc(C3CCN(C(=O)C4CCN(CC5CCN(c6ccc(C7CCC(=O)NC7=O)cn6)CC5)CC4)CC3)sc2-c2ccncc2)c1F (racemic)	BRAF G466V (Homo sapiens, UniProt P15056, G466V)	> 0.5 µM
CCCS(=O)(=O)Nc1cccc(-c2cn(C3CCN(C(=O)C4CCN(C(=O)C5CCN(c6ccc(C7CCC(=O)NC7=O)cn6)CC5)CC4)CC3)nc2-c2ccncc2)c1F (racemic)	BRAF G466V (Homo sapiens, UniProt P15056, G466V)	0.05 to 0.5 µM
CCCS(=O)(=O)Nc1cccc(-c2nc(C3CCN(C(=O)C4CCN(C(=O)C5CCN(c6ccc(C7CCC(=O)NC7=O)cn6)CC5)CC4)CC3)sc2-c2ccncn2)c1F (racemic)	BRAF G466V (Homo sapiens, UniProt P15056, G466V)	0.01 to 0.05 µM

Now turn to the next compound.
Looking for the measured DC50 of CCN(C)S(=O)(=O)Nc1cccc(-c2nc(C(C)(C)C)sc2-c2ccnc(Nc3ccc(N4CCN(C(=O)C5(C)CCN(c6ccc(C7CCC(=O)NC7=O)cn6)CC5)CC4)cn3)n2)c1F (racemic) , can you help?
> 0.5 µM

* * *

# System under test: BRAF V600E (Homo sapiens, UniProt P15056, V600E)
# Construct: endogenous C-terminal HiBiT fusion tag on BRAF V600E allele; endogenous in cells; host or cells: A375 clone 1F10 (CRISPR-Cas9 knock-in of the HiBiT tag; parental A375 from ATCC)
# Sequence (P15056 whole entry V600E, the tested form may be a part): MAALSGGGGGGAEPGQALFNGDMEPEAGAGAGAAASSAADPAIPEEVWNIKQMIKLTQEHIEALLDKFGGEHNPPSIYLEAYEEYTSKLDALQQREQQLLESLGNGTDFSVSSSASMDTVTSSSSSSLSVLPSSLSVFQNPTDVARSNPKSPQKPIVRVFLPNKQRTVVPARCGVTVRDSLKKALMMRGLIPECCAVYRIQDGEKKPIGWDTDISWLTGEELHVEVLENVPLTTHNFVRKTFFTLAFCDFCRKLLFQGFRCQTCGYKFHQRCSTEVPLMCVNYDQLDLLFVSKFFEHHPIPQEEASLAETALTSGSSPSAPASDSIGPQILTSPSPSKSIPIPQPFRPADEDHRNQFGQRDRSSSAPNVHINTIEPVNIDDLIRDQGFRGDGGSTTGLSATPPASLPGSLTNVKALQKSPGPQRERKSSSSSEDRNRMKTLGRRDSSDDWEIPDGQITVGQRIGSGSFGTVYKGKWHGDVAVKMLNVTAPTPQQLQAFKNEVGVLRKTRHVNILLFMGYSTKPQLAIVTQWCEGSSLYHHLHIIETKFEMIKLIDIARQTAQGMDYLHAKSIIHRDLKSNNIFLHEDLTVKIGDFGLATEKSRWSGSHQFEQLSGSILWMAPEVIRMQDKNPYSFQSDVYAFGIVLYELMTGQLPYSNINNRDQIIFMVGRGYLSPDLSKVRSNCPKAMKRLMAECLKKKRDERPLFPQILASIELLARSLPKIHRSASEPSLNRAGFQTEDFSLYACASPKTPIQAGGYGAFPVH
# Experiment summary: BRAF HiBiT degradation assay, C-terminal HiBiT-tagged BRAF V600E A375 cells (clone 1F10), Nano-Glo HiBiT Lytic assay
# Assay type: cell-based
# Setup conditions: A375 (BRAF V600E, Class 1); DC50 at 50% degradation
Examples of compounds with documented DC50 follow.

Compound	Measured attribute	Result
O=C1CC[C@H](c2ccc(N3CCC(CN4CCCN(c5ccc(-n6cc(-c7cc(Cl)cc(NS(=O)(=O)N8CCCC8)c7F)c(-c7ccncc7)n6)c(F)c5)CC4)CC3)cc2)C(=O)N1 [Compound 346]	DC50	< 10 nM
O=C1CCC(c2ccc(N3CCC(CN4CCCN(c5ccc(-n6cc(-c7cc(Cl)cc(NS(=O)(=O)N8CCCC8)c7F)c(-c7ccncc7)n6)c(F)c5)CC4)CC3)nc2)C(=O)N1 (racemic) [Compound 345]	DC50	< 10 nM

Now for the compound whose DC50 we want.
Query (compound): C[C@@H]1CN(c2ccc(-n3cc(-c4cc(Cl)cc(NS(=O)(=O)N5CCCC5)c4F)c(-c4ccncc4)n3)cc2)CCN1CC1CCN(c2ccc(C3CCC(=O)NC3=O)cn2)CC1 (mixture of isomers) [Compound 268] ; field requested: DC50
< 10 nM

* * *

Entries and their Dmax values follow.
# System under test: BRAF D594G (Homo sapiens, UniProt P15056, D594G)
# Construct: Horizon Discovery (HCT-116 BRAF−/− cells); host or cells: HCT-116 BRAF−/− cells, clone 63, lentiviral transduction
# Sequence (P15056 whole entry D594G): as the sequence (P15056 whole entry V600E, the tested form may be a part) above, with D594G, E600V counted along it
# Experiment summary: BRAF HiBiT degradation assay, C-terminal HiBiT-tagged BRAF D594G overexpressed in HCT-116 BRAF−/− cells (clone 63), Nano-Glo HiBiT Lytic assay
# Assay type: cell-based
# Setup conditions: BRAF D594G (Class 3), HCT-116 BRAF−/− cells; observed Dmax relative to DMSO control

Known results for molecules:
O=C1CCN(c2ccc(N3CCC(CN4CCN(c5ccc(-n6cc(-c7cc(Cl)cc(NS(=O)(=O)N8CCCC8)c7F)c(-c7ccncc7)n6)cc5)CC4)CC3)nc2)C(=O)N1 30 to 70%
O=C1CC[C@H](c2ccc(N3CCC(CN4CCN(c5ccc(-n6cc(-c7cc(Cl)cc(NS(=O)(=O)N8CC[C@@H](F)C8)c7F)c(-c7ccncc7)n6)cc5)CC4)CC3)cc2)C(=O)N1 > 70%
CCN(C)S(=O)(=O)Nc1cccc(-c2cn(-c3ccc(N4CCN(CC5CCN(c6ccc([C@H]7CCC(=O)NC7=O)cn6)CC5)CC4)cc3F)nc2-c2ccncc2)c1F 30 to 70%
O=C1CCN(c2ccc(N3CCC(CN4CCN(c5ccc(-n6cc(-c7cc(Cl)cc(NS(=O)(=O)N8CC[C@@H](F)C8)c7F)c(-c7ccncc7)n6)cc5F)CC4)CC3)cc2)C(=O)N1 30 to 70%

Now for another entry.
Form field - read-out: Dmax; system: BRAF D594G (Homo sapiens, UniProt P15056, D594G); submitted item: CCN(C)S(=O)(=O)Nc1cc(Cl)cc(-c2cn(-c3ccc(N4CCN(CC5CCN(c6ccc([C@H]7CCC(=O)NC7=O)cn6)CC5)CC4)cn3)nc2-c2ccncc2)c1F
> 70%

* * *

# System under test: BRAF G469A (Homo sapiens, UniProt P15056, G469A)
# Construct: Horizon Discovery (HCT-116 BRAF−/− cells); host or cells: HCT-116 BRAF−/− cells, clone 34, lentiviral transduction
# Sequence (P15056 whole entry G469A): as the sequence (P15056 whole entry G466V) above, with V466G, G469A counted along it
# Experiment summary: BRAF HiBiT degradation assay, C-terminal HiBiT-tagged BRAF G469A overexpressed in HCT-116 BRAF−/− cells (clone 34), Nano-Glo HiBiT Lytic assay
# Format: cell-based
# Setup conditions: BRAF G469A (Class 2), HCT-116 BRAF−/− cells; DC50 at 50% degradation
Here the recorded DC50 is given for each entry.

Molecule	DC50
CCC(C)S(=O)(=O)Nc1cc(Cl)cc(-c2cn(-c3ccc(N4CCN(CC5CCN(c6ccc([C@@H]7CCC(=O)NC7=O)cn6)CC5)CC4)cc3)nc2-c2ccncc2)c1F (mixture of isomers)	10 to 50 nM
O=C1CCN(c2ccc(N3CCC(CN4CCN(c5ccc(-n6cc(-c7cc(Cl)cc(NS(=O)(=O)N8CCCC8)c7F)c(-c7ccncc7)n6)c(F)c5)CC4)CC3)nc2)C(=O)N1	> 500 nM
CCCS(=O)(=O)Nc1cc(Cl)cc(-c2cn(-c3ccc(N4CCN(CC5CCN(c6ccc(C7CCC(=O)NC7=O)cn6)CC5)[C@@H](C)C4)cc3)nc2-c2ccncc2)c1F (mixture of isomers)	10 to 50 nM

Can you share its DC50? I mean this molecule: O=C1CC[C@H](c2ccc(N3CCC(CN4CCN(c5ccc(-n6cc(-c7cc(Cl)cc(NS(=O)(=O)N8CCCC8)c7F)c(-c7ccncc7)n6)cc5F)CC4)CC3)cc2)C(=O)N1
10 to 50 nM

Suppose we examine the molecule CCN(C)S(=O)(=O)Nc1cc(Cl)cc(-c2cn(-c3ccc(N4CCN(CC5CCN(c6ccc([C@H]7CCC(=O)NC7=O)cc6)CC5)CC4)cc3)nc2-c2ccncc2)c1F ; what DC50 value has been reported?
10 to 50 nM

* * *

# Lookup of reported DC50 keyed by entry
# System under test: BRAF V600E (Homo sapiens, UniProt P15056, V600E)
# Construct: endogenous C-terminal HiBiT fusion tag on BRAF V600E allele; endogenous in cells; host or cells: A375 clone 1F10 (CRISPR-Cas9 knock-in of the HiBiT tag; parental A375 from ATCC)
# Experiment summary: BRAF HiBiT degradation assay, C-terminal HiBiT-tagged BRAF V600E A375 cells (clone 1F10), Nano-Glo HiBiT Lytic assay
# Assay type: cell-based
# Setup conditions: A375 (BRAF V600E); DC50 at 50%: fitted conc. at Y=50

Compound	System under test	DC50
CCCS(=O)(=O)Nc1cccc(-c2nc(C(C)(C)C)sc2-c2ccnc(Nc3cnn(C4CCN(C(=O)CN5CCC(c6ccc(NC7CCC(=O)NC7=O)cc6)CC5)CC4)c3)n2)c1F (racemic)	BRAF V600E (Homo sapiens, UniProt P15056, V600E)	< 0.01 µM
CCCS(=O)(=O)Nc1cccc(-c2nc(C3CCC4(CC3)CN(C(=O)C3CN(C5CCN(c6ccc7c(c6)C(=O)N(C6CCC(=O)NC6=O)C7=O)CC5)C3)C4)sc2-c2ccnc(N)n2)c1F (racemic)	BRAF V600E (Homo sapiens, UniProt P15056, V600E)	< 0.01 µM

Turning now to a further record.
Look up DC50 for this compound: CCCS(=O)(=O)Nc1cccc(-c2cn(-c3ccc(C(=O)N4CCN(CC5CCN(c6ccc([C@@H]7CCC(=O)NC7=O)cc6)CC5)CC4)cc3)nc2-c2ccncc2)c1F
0.05 to 0.5 µM
